- Tested on: RPMI-8226 leukemia
- assay name: NCI tumour cell line growth inhibition, 48 h
Reported GI50 values are given for each entry in this list.

[in] // lookup GI50 for `Cl.[Pt].[c-]1ccccc1-c1ccccn1.c1ccc(P(c2ccccc2)C([PH+](c2ccccc2)c2ccccc2)[PH+](c2ccccc2)c2ccccc2)cc1`
[out] 0.525 µM

[in] Data request, read-out GI50, for `OC(c1ccc(Cl)cc1)(c1ccc(Cl)cc1)C(O)(c1ccc(Cl)cc1)c1ccc(Cl)cc1`
[out] 3.27 µM

[in] // lookup GI50 for `Nc1ccc(-c2nc3ccc4[nH]ncc4c3c3c2CCCC3)cc1F`
[out] 0.842 µM

[in] Look up GI50 for this compound: COc1ccc2c(c1)CCC1C2CC[C@@]2(C)C1CC[C@@]2(O)CNC(=O)/C=C/c1ccc(O)c(OC)c1 (stereo not given in full)
[out] 6.47 µM

[in] # query: GI50 of entry `COc1ccc(C(=O)c2cc(OC)c(OC)c(OC)c2)cc1OC(C)=O`
[out] 0.0324 µM

[in] # query: GI50 of entry `CC(=O)Oc1ccc(OC(C)=O)c2ccccc12`
[out] 3.85 µM

[in] Quick one: GI50 of `CN(C)CCCNc1nn2c(=O)c3ccccc3nc2c2ccccc12` ?
[out] 11.9 µM

[in] Could you share which GI50 value was measured for `Oc1ccc2oc3ncc(Cl)c(-c4ccccc4)c3c2c1` ?
[out] > 100 µM

[in] # query: GI50 of entry `COc1ccc(-c2nn(-c3cccc(Cl)c3)cc2C=C(C#N)C#N)cc1`
[out] 2.3 µM

[in] Requested read-out: GI50. Entry: `O=C(c1ccccc1Nc1ccnc(C(F)(F)F)c1)N1CCN(c2cccc(Cl)c2)CC1`
[out] 6.3 µM
